Target: human SGLT2 (Homo sapiens)
Sequence (P31639 1-672): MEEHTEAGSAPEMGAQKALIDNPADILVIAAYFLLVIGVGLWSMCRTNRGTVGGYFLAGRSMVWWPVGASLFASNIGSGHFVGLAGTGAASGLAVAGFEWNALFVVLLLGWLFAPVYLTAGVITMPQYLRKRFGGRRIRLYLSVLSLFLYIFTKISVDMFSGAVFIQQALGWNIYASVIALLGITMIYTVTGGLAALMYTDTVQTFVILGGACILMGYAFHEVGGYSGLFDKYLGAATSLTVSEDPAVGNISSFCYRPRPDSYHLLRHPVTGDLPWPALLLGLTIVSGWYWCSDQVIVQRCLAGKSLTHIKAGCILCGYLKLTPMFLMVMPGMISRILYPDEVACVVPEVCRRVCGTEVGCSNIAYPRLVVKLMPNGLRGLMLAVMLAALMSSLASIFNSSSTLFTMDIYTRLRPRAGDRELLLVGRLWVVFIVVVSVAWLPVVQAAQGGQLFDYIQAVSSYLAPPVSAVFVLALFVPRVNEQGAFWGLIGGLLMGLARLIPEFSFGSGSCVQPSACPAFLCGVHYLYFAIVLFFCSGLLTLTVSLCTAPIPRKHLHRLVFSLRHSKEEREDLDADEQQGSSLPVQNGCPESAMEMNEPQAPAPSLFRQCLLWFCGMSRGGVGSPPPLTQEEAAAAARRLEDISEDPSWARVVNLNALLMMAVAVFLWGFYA
Test: SGLT2 assay: Na-dependent 14C-AMG uptake in CHO-K1 cells stably expressing human SGLT2
Conditions: average if tested more than once
A collection of molecules and their measured pIC50
// pIC50: -log10(molar conc.)

Query string: Let me know recorded pIC50 for "COc1cc(C)c(Cc2cc3c(s2)CCN(C#N)C3)cc1[C@@H]1O[C@H](CO)[C@@H](F)[C@H](O)[C@H]1O" , thanks.
Result string: 8.30

Query string: Let me know recorded pIC50 for "OC[C@H]1O[C@@H](c2cc3c(c(Cc4ccc5c(c4)OCCO5)c2)OCC3)[C@H](O)[C@@H](O)[C@@H]1F" , thanks.
Result string: 7.96

Query string: Let me know recorded pIC50 for "Cc1c(Cc2cc3ccccc3s2)cc([C@@H]2O[C@H](CO)[C@@H](F)[C@H](O)[C@H]2O)c2c1CCO2" , thanks.
Result string: 7.68

Query string: Let me know recorded pIC50 for "Cc1cc(CO)c([C@@H]2O[C@H](CO)[C@@H](F)[C@H](O)[C@H]2O)cc1Cc1cc2ccccc2s1" , thanks.
Result string: 8.00
